target: CDK3/Cyclin E1 (Homo sapiens, UniProt Q00526)
Sequence (Q00526 whole entry): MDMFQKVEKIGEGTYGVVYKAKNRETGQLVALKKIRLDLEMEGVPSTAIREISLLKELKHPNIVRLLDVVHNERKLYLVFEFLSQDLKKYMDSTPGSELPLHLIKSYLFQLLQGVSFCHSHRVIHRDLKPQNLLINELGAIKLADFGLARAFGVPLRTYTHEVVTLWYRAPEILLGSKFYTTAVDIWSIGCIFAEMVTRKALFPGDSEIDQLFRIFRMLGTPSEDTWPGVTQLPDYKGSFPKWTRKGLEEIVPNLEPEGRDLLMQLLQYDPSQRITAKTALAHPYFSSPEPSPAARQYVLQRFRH
Sequence (P24864 whole entry partner): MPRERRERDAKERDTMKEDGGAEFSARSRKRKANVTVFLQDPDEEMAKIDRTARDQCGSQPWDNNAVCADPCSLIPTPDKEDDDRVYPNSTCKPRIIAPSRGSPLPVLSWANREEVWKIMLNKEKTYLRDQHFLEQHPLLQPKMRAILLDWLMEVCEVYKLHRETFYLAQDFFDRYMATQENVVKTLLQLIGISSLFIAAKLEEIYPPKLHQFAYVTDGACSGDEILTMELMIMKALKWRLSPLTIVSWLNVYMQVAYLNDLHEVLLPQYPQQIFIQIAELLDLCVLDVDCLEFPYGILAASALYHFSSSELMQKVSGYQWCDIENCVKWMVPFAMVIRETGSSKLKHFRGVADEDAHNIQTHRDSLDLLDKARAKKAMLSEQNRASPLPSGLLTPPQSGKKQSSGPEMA
protocolDescription: NanoBRET live-cell target engagement, CDK3-NanoLuc/Cyclin E1 in HEK-293
Assay type: binding
setupConditions: 10µM; independent experiment 2; read-out: CDK3/E1 Inhibition at 10µM (%)
measurementName: inhibition at 10 µM
In your response, the unit should come after the numeric value.

Below, each entry is followed by its recorded inhibition at 10 µM result.
chemicalStructure: CC(C)CC(=O)Nc1[nH]nc2c1CN(C(=O)C1CCN(C)CC1)C2(C)C
inhibition at 10 µM: 93%

chemicalStructure: CC(C)[C@H](CO)Nc1nc(Nc2ccc(C(=O)O)c(Cl)c2)c2ncn(C(C)C)c2n1
inhibition at 10 µM: 37.2%

chemicalStructure: CN1CCN(c2ccc(Nc3ncc4cc5n(c4n3)C3(CCCCC3)CNC5=O)nc2)CC1
inhibition at 10 µM: 1.1%

Quick note, inhibition at 10 µM for CN(C)C/C=C/C(=O)Nc1ccc(C(=O)N2CCC[C@@H](Nc3ncc(Cl)c(-c4c[nH]c5ccccc45)n3)C2)cc1 landed at 65.2%

Measured inhibition at 10 µM, COCCN1CCN(Cc2ccc(-c3n[nH]c4c3C(=O)c3c(NC(=O)NN5CCOCC5)cccc3-4)cc2)CC1 : 93.6%

# inhibition at 10 µM of CN1C/C=C/CCOc2cccc(c2)-c2ccnc(n2)Nc2cccc(c2)C1 = 95.9%

---

target: CDK2/Cyclin E1 (Homo sapiens, UniProt P24941)
protocolDescription: NanoBRET live-cell target engagement, CDK2-NanoLuc/Cyclin E1 in HEK-293
Type: binding
setupConditions: CDK2/E1; experiment 1; read-out: IC50
measurementName: IC50 (nM)
Express the result in nM but write the number alone.

Some compounds with recorded IC50:
compound: CC(C)c1c2cc(-c3ccnc(N[C@H]4CC[C@H](NC5CCOCC5)CC4)n3)ccc2nn1C [LY2857785]
unitsSymbol: nM
assayResult: 730
--
compound: CC(C)c1cnn2c(NCc3ccccc3-n3cccn3)nc(OC3CCCNC3)nc12 (stereo not drawn) [LDC4297]
unitsSymbol: nM
assayResult: 81

# next compound below
Entry CCn1cnc2c(Nc3cccc(Cl)c3)nc(N[C@@H]3CCCC[C@@H]3N)nc21 [CGP74514A] ; IC50 = 63

---

target: CDK10/Cyclin L2 (Homo sapiens, UniProt Q15131)
Sequence (Q15131 whole entry): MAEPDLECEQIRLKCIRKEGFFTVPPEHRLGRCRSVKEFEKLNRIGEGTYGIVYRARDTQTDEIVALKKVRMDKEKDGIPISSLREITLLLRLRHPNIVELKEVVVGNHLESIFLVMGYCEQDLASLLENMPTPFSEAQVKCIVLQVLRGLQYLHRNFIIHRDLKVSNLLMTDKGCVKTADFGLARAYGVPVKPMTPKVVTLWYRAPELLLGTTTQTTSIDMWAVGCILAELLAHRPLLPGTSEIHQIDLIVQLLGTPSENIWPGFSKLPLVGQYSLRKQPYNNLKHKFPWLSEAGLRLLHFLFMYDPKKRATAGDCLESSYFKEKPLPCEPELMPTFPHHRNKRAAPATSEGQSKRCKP
protocolDescription: NanoBRET live-cell target engagement, CDK10-NanoLuc/Cyclin L2 in HEK-293
setupConditions: read-out: IC50 (nM) Replicate 1; CDK10/L2
measurementName: IC50 (nM)
Write the number in nM without appending the unit.

Measured IC50, CNC1CCN(C(=O)c2ccc(Nc3ncc(F)c(-c4cnc(C)n4C(C)C)n3)cc2)C1 (stereo not shown) [AZD5597] : 450

---

target: CDK15/Cyclin Y (Homo sapiens, UniProt Q96Q40)
Sequence (Q96Q40 whole entry): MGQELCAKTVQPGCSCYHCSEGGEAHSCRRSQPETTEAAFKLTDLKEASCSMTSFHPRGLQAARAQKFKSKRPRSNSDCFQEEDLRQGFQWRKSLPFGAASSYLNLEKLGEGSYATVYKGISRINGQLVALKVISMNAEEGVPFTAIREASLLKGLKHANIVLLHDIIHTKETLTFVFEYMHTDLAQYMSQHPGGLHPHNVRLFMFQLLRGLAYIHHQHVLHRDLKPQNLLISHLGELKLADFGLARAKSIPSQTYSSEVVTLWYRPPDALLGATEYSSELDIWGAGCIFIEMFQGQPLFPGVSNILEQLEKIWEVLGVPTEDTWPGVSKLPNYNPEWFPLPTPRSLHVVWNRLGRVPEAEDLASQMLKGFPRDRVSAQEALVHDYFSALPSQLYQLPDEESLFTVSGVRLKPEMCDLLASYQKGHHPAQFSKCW
Sequence (Q8ND76 whole entry partner): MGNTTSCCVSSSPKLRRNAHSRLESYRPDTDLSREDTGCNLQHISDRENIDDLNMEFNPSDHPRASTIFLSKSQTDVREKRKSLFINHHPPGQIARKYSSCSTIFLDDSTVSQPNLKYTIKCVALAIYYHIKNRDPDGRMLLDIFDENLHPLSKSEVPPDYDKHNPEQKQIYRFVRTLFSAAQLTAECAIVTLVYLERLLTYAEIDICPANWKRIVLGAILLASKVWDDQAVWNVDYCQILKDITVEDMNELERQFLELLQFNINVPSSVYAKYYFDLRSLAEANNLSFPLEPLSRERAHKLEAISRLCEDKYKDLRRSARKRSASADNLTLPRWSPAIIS
protocolDescription: NanoBRET live-cell target engagement, NanoLuc-CDK15/Cyclin Y in HEK-293
Format: binding
setupConditions: 10µM; independent experiment 1; read-out: CDK15/Y Inhibition at 10µM (%)
We begin with a simple list: items and their reported inhibition at 10 µM.
Respond numerically; units are % and should not be typed.

Here are 5 molecules together with their reported answers.
chemicalStructure: CN1CCN(c2ccc(Nc3ncc4cc5n(c4n3)C3(CCCCC3)CNC5=O)nc2)CC1
inhibition at 10 µM / %: 2.9
--
chemicalStructure: CN1C/C=C/CCOc2cccc(c2)-c2ccnc(n2)Nc2cccc(c2)C1
inhibition at 10 µM / %: 97.4
--
chemicalStructure: CC(=O)c1c(C)c2cnc(Nc3ccc(N4CCNCC4)cn3)nc2n(C2CCCC2)c1=O
inhibition at 10 µM / %: 41.6
--
chemicalStructure: CC(C)[C@H](CO)Nc1nc(Nc2ccc(C(=O)O)c(Cl)c2)c2ncn(C(C)C)c2n1
inhibition at 10 µM / %: 4.9
--
chemicalStructure: CC(C)CC(=O)Nc1[nH]nc2c1CN(C(=O)C1CCN(C)CC1)C2(C)C
inhibition at 10 µM / %: 72.6

In the following, a different molecule is considered.
Entry CN(C)C/C=C/C(=O)Nc1ccc(C(=O)N2CCC[C@@H](Nc3ncc(Cl)c(-c4c[nH]c5ccccc45)n3)C2)cc1 — recorded inhibition at 10 µM = 75.6
